- targetOrSystem: α3β4 nAChRs (Rattus norvegicus, UniProt P04757+P12392)
- Sequence (P04757 26-499): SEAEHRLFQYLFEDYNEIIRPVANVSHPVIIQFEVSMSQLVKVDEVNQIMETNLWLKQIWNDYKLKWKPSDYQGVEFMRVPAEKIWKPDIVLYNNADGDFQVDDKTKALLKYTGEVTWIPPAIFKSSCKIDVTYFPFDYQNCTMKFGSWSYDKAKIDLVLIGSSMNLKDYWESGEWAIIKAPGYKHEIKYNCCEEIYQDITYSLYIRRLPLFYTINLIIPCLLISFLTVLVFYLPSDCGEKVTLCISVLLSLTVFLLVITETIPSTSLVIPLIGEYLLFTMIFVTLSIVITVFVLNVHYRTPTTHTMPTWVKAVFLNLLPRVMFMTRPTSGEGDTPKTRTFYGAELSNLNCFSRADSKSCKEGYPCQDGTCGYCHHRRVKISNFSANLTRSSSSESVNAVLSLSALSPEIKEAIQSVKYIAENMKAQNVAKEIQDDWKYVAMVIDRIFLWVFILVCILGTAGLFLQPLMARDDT
- Sequence (P12392 21-495): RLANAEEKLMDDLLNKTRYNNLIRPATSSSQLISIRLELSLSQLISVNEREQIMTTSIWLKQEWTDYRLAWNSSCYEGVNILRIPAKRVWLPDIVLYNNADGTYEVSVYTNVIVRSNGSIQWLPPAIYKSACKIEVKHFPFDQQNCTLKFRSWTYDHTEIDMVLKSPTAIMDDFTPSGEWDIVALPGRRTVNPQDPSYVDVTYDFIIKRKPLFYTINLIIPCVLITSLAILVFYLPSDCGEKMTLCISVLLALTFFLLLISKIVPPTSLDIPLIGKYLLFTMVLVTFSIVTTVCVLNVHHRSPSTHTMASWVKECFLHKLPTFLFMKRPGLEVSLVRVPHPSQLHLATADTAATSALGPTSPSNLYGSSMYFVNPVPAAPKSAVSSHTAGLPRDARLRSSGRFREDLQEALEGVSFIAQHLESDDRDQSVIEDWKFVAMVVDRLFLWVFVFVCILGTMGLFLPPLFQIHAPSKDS
- protocol: radioligand ([3H]epibatidine) competition binding, α3β4 nAChR
measurementName: Ki

{"molecule": "OCCCCc1cn(-c2cncc(OCC3CCN3)c2)nn1 (stereo not shown) [triazetidine O]", "valueReported": "62 µM"}

* * *

- targetOrSystem: α4β2 nAChRs (Homo sapiens, UniProt P17787+P43681)
- Sequence (P43681 29-627 limits assumed): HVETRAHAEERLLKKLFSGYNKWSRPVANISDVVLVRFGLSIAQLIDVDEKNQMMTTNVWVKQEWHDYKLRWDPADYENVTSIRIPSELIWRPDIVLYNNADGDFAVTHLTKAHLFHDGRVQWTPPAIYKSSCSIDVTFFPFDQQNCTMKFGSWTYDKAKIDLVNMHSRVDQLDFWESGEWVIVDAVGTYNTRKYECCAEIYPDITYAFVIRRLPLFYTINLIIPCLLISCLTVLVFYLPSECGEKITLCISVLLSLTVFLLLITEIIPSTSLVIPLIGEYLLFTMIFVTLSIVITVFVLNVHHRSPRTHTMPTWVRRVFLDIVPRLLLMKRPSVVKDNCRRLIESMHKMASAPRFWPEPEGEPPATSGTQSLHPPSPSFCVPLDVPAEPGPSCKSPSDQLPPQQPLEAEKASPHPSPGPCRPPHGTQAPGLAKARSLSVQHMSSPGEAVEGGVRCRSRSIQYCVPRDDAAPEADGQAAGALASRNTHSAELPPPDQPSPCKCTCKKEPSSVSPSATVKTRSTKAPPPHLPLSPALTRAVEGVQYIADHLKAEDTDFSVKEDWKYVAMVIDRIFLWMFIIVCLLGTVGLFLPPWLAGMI
- Sequence (P17787 26-502): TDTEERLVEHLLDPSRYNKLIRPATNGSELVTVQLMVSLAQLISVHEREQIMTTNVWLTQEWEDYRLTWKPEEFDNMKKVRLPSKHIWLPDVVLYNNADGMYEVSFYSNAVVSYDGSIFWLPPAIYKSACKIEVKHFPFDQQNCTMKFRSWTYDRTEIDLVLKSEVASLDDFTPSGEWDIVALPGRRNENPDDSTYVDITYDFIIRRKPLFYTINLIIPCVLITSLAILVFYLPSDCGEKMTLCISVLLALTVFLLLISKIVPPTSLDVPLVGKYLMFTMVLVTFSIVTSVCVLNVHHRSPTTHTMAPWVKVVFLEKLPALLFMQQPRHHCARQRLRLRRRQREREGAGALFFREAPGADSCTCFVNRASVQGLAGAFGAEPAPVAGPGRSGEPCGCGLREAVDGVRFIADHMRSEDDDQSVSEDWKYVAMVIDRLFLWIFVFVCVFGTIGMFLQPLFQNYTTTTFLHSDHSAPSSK
- protocol: desensitizer test: 86Rb+ efflux after 10 min preincubation, α4β2 nAChR
pIC50: −log10 of the molar value.
measurementName: pIC50

{"compound": "OCCCCc1cn(-c2cncc(OCC3CCN3)c2)nn1 (stereo not shown)", "valueReported": 7.00}
